Reference source: paper PMC3252304

- Subject Of Test: human 17β-HSD1 (Homo sapiens)
- Construct: In the cell free assay, the placental cytosolic enzyme was used; from tissue; host or cells: human placenta, cytosolic fraction, ammonium sulfate precipitate
- Sequence (P14061 whole entry): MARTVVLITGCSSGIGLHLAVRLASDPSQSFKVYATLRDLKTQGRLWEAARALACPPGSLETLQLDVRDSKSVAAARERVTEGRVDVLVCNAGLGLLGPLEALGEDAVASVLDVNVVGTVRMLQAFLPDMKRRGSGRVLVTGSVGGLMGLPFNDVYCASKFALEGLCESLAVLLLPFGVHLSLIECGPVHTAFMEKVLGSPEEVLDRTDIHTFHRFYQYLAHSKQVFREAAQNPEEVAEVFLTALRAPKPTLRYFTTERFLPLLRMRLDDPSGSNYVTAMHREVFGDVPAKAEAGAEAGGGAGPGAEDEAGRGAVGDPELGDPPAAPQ
- Experiment Summary: 17β-HSD1 cell free assay (placental cytosolic enzyme, [3H]E1 to E2, HPLC radiodetection)
- Assay type: biochemical
- Test Settings: inhibitor 1 µM; human placenta cytosolic fraction, [3H]E1 + E1 500 nM, NADH 500 µM; less than 10% = inactive; ni = no inhibition
Property Measured: 17β-HSD1 % inhib. (1µM)

Past entries and their recorded results:
Molecule | 17β-HSD1 % inhib. (1µM)
CSC(c1ccc(O)cc1)c1nc2ccc(O)cc2s1 (stereo not shown) | ni
COc1cccc(C(=O)c2nc3ccc(OC)cc3s2)c1 | ni.
COc1ccc(C(=O)Nc2nc3ccc(O)cc3s2)cc1 | ni.
COc1ccc2nc(C(=O)Nc3ccccc3O)sc2c1 | ni
O=C(Nc1ccccc1O)c1nc2ccc(O)cc2s1 | ni

Next molecule, please.
Just so you know, measured 17β-HSD1 % inhib. (1µM) for COc1ccc2nc(Cc3ccc(O)cc3)sc2c1 came out at ni
